Data origin: PubChem BioAssay AID206

Tested on: nude mice, HT29 intrarenal xenograft, tumor weight T/C
assay_remarks: NCI In Vivo Anticancer Drug Screen. Data for tumor model HT29;CX-1 Human Adenocarcinoma (MER+) (intrarenal inoculation) in NU/NU Swiss (nude) mice
study_conditions: endpoint: mean tumor weight change; dose: 100.0 mg/kg/injection; schedule: Q04DX004 (sc); vehicle: saline with Tween-80; higher = larger tumour
Records with an inconclusive call do not appear.
compounds and their reported T/C

- compound: "CN=C(N)N/N=C(\\C)c1ccc2c(c1)Cc1cc(/C(C)=N/NC(N)=NC)ccc1-2"
  T/C: "105 % of control"
- compound: "CC(Cc1ccc(O)cc1)NCC(O)c1ccc(O)c(O)c1 (centres undefined)"
  T/C: "106 % of control"
- compound: "O=C(Nc1cccc2c(OC(=O)C(Cl)Cl)c(N=Nc3ccc(S(=O)(=O)Nc4nccs4)cc3)cc(N=Nc3ccc(S(=O)(=O)Nc4nccs4)cc3)c12)C(Cl)Cl (tested in a mixture with another compound)"
  T/C: "94 % of control"
- compound: "CCN(CC)CCC(=O)c1ccccc1"
  T/C: "60 % of control"
- compound: "O=C(Nc1nncs1)c1cccs1"
  T/C: "93 % of control"
- compound: "O=C(Nc1ccccc1C(=O)O)c1cc([N+](=O)[O-])cc([N+](=O)[O-])c1"
  T/C: "120 % of control"

Exam item: Fill in T/C for record CCCCOCN(COCCCC)C(C)Cc1ccccc1 (centres undefined)
Marked response: 110 % of control

Exam item: For CCN(CC)CCOC(=O)Cc1cccc2c(=O)cc(-c3ccccc3)oc12 , write its T/C.
Marked response: 104 % of control

Exam item: Supply measured T/C of CCN1/C(=C/C=C/C=C\C=C\c2sc3ccc4ccccc4c3[n+]2CC)Sc2ccc3ccccc3c21 in your reply.
Marked response: 123 % of control

---

System: nude mice, HT29 intrarenal xenograft, tumor weight T/C
assay_remarks: NCI In Vivo Anticancer Drug Screen. Data for tumor model HT29;CX-1 Human Adenocarcinoma (MER+) (intrarenal inoculation) in NU/NU Swiss (nude) mice
study_conditions: endpoint: mean tumor weight change; dose: 2400.0 mg/kg/injection; schedule: Q04DX004 (sc); vehicle: Klucel (hydroxypropylcellulose) (HPC); higher = larger tumour
Inconclusive results are not listed.
quantity: T/C

Use the examples below as a reference point.
- molecule: "O=c1ssc(=Nc2ccccc2)n1-c1ccccc1"
  T/C: "189 % of control"
- molecule: "O=C(O)c1cc(Cc2ccc(O)c(C(=O)O)c2)ccc1O (tested in a mixture with another compound)"
  T/C: "104 % of control"
- molecule: "Cc1cc(C)c(-c2cc(O)c(C)cc2O)c(C)c1"
  T/C: "71 % of control"

Exam item: // Input: O=c1[nH]cnc2n[nH]nc12 . Output its T/C only.
Marked response: 30 % of control

Exam item: Read the entry COC(=O)Nc1cn2cc(C(=O)c3cccs3)ccc2n1 and write its reported T/C.
Marked response: 36 % of control

---

Tested on: nude mice, HT29 intrarenal xenograft, tumor weight T/C
assay_remarks: NCI In Vivo Anticancer Drug Screen. Data for tumor model HT29;CX-1 Human Adenocarcinoma (MER+) (intrarenal inoculation) in NU/NU Swiss (nude) mice
study_conditions: endpoint: mean tumor weight change; dose: 75.0 mg/kg/injection; schedule: Q04DX004 (sc); vehicle: Klucel (hydroxypropylcellulose) (HPC); higher = larger tumour
Procedure: The antitumor activity of compounds was measured in mice bearing transplantable tumors. Survival or tumor size were measured and the results are expressed as the measurement made in the treated group (T) divided by the measurement made in the vehicle treated control group (C). The tumor model used in this assay is HT29;CX-1 Human Adenocarcinoma (MER+) (intrarenal inoculation) in NU/NU Swiss (nude) mice
Inconclusive results are not listed.
quantity: T/C

# example entries with known answers
- compound: "CCc1ccc(C2=C(O)C(=O)C(c3ccccc3)=C(O)C2=O)cc1"
  T/C: "159 % of control"
- compound: "O=NN(CCCl)C(=O)Oc1ccc(OC(=O)N(CCCl)N=O)cc1"
  T/C: "67 % of control"
- compound: "CCN(CC)c1ccc2cc(-c3nc4ccccc4n3C)c(=O)oc2c1"
  T/C: "82 % of control"
- compound: "Nc1ncnc2c1nnn2C1OC(CO)C(O)C1O (configuration not stated)"
  T/C: "41 % of control"
- compound: "CC(C)NC(=O)N(CCCCBr)N=O"
  T/C: "174 % of control"
- compound: "O=C1C=CC(=O)N1c1ccc(Cl)cc1"
  T/C: "70 % of control"
- compound: "O=C1C2(Cl)C3(Cl)C4(Cl)C(Cl)(Cl)C5(Cl)[C@]3(Cl)C1(Cl)[C@]5(Cl)C24Cl (some centres not stated)"
  T/C: "60 % of control"
- compound: "Cc1cc(N2C(=O)CCSC2=S)ccc1Cl"
  T/C: "37 % of control"
- compound: "Cc1nn(CCO)c(C)c1N=[N+]([O-])c1c(C)nn(CCO)c1C"
  T/C: "68 % of control"
- compound: "Cc1cc(N/N=C/c2ccccn2)nc2ccccc12"
  T/C: "107 % of control"

Exam item: Specify measured T/C for NC(=O)c1ncn(C2OC(CO)C(O)C2O)c1O (configuration not stated) .
Marked response: 77 % of control

Exam item: Tell me measured T/C for O=S(=O)(O)O please.
Marked response: 86 % of control

---

// T/C lookup, one value per entry
System: nude mice, HT29 intrarenal xenograft, tumor weight T/C
assay_remarks: NCI In Vivo Anticancer Drug Screen. Data for tumor model HT29;CX-1 Human Adenocarcinoma (MER+) (intrarenal inoculation) in NU/NU Swiss (nude) mice
study_conditions: endpoint: mean tumor weight change; dose: 10.0 mg/kg/injection; schedule: Q01DX010 (sc); vehicle: saline; higher = larger tumour
Inconclusive results are not listed.

- compound: "CC(=O)C(O)N1C(=O)C=CC1=O (centres undefined)"
  T/C: "52 % of control"
- compound: "O.O.[NH-]C1CCCCC1[NH-].[Pt+2] (centres undefined)"
  T/C: "74 % of control"
- compound: "OCCN1CCN(CC/C=C2/c3ccccc3Sc3ccc(C(F)(F)F)cc32)CC1"
  T/C: "49 % of control"

Exam item: Read the entry OCCN1CCN(CCCN2c3ccccc3Sc3ccc(C(F)(F)F)cc32)CC1 and write its reported T/C.
Marked response: 92 % of control

---

Test system: nude mice, HT29 intrarenal xenograft, tumor weight T/C
assay_remarks: NCI In Vivo Anticancer Drug Screen. Data for tumor model HT29;CX-1 Human Adenocarcinoma (MER+) (intrarenal inoculation) in NU/NU Swiss (nude) mice
study_conditions: endpoint: mean tumor weight change; dose: 225.0 mg/kg/injection; schedule: Q04DX004 (sc); vehicle: Klucel (hydroxypropylcellulose) (HPC); higher = larger tumour
Method: The antitumor activity of compounds was measured in mice bearing transplantable tumors. Survival or tumor size were measured and the results are expressed as the measurement made in the treated group (T) divided by the measurement made in the vehicle treated control group (C). The tumor model used in this assay is HT29;CX-1 Human Adenocarcinoma (MER+) (intrarenal inoculation) in NU/NU Swiss (nude) mice
Results filed as inconclusive are left out.
quantity: T/C

Worked cases, T/C given:
- molecule: "COc1cc(OC)c(OC)cc1/C=C\\c1ccnc2ccccc12"
  quantity: "T/C"
  readout_value: "79 % of control"
- molecule: "CCCCCC(=O)O[C@]1(C(C)=O)CC[C@H]2[C@@H]3CCC4=CC(=O)CC[C@]4(C)[C@H]3CC[C@@]21C"
  quantity: "T/C"
  readout_value: "73 % of control"
- molecule: "CC(=O)OC1=NC(C)c2c1cc(OC(C)=O)[nH]c2=O (stereo not given)"
  quantity: "T/C"
  readout_value: "108 % of control"
- molecule: "CN(C1=NS(=O)(=O)N=C(N(C)c2ccccc2)O1)c1ccccc1"
  quantity: "T/C"
  readout_value: "95 % of control"

Now take the following molecule into account.
Exam item: Please report T/C with nude mice, HT29 intrarenal xenograft, tumor weight T/C for item Cc1ccc(NCCN(C)C)c2c(=O)c3cc(O)ccc3sc12 .
Marked response: 81 % of control

---

Test system: nude mice, HT29 intrarenal xenograft, tumor weight T/C
assay_remarks: NCI In Vivo Anticancer Drug Screen. Data for tumor model HT29;CX-1 Human Adenocarcinoma (MER+) (intrarenal inoculation) in NU/NU Swiss (nude) mice
study_conditions: endpoint: mean tumor weight change; dose: 400.0 mg/kg/injection; schedule: Q01DX010 (sc); vehicle: Klucel (hydroxypropylcellulose) (HPC); higher = larger tumour
Description: The antitumor activity of compounds was measured in mice bearing transplantable tumors. Survival or tumor size were measured and the results are expressed as the measurement made in the treated group (T) divided by the measurement made in the vehicle treated control group (C). The tumor model used in this assay is HT29;CX-1 Human Adenocarcinoma (MER+) (intrarenal inoculation) in NU/NU Swiss (nude) mice
Inconclusive results are not listed.
quantity: T/C

// worked examples, T/C included
- compound: "ClCCCCCCCCCCc1ccccc1"
  T/C: "57 % of control"
- compound: "O=[N+]([O-])/C=C\\c1ccc2c(c1)OCO2"
  T/C: "163 % of control"
- compound: "N#CC(C#N)=C/C=C/c1cccc([N+](=O)[O-])c1"
  T/C: "74 % of control"
- compound: "CN(C)/N=N/c1nc[nH]c1C(N)=O"
  T/C: "77 % of control"
- compound: "OC(CBr)C(O)C(O)C(O)CBr (stereo unspecified)"
  T/C: "59 % of control"

Shift focus to the following entry.
Exam item: Please give measured T/C of the following entry: Cc1ccc2c(ccc(CC(=S)[S-])[n+]2C)c1
Marked response: 67 % of control
